Reference source: paper PMC7024217

- TESTED ON: bovine thrombin (Bos taurus)
- Construct: bovine thrombin and argatroban were purchased from Sigma-Aldrich; purchased Sigma-Aldrich (St. Louis, MO, USA)
- TEST PROTOCOL: Thrombin inhibitory activity assay (chromogenic substrate S-2238)
- Assay type: biochemical
- TEST CONDITIONS: Table 1; anti-thrombin; substrate S-2238 4 mg/mL; read-out: IC50
EXPERIMENTAL READOUT: IC50 (µM)
Answers are plain numbers, in µM.

Use the examples below as a reference point.
O=c1cc(-c2ccccc2)oc2cc(O)c(O)c(O)c12 [Baicalein]
249
O=c1cc(-c2ccc(O)c(O)c2)oc2cc(O[C@@H]3O[C@H](CO)[C@@H](O)[C@H](O)[C@H]3O)cc(O)c12 [Luteoloside]
155

Moving on to the next molecule.
Quickly give me recorded IC50 for COc1cc(O)c2c(=O)cc(-c3ccc(O)c(O)c3)oc2c1 [Hydroxygenkwanin]
99.7

* * *

- TESTED ON: bovine thrombin (Bos taurus, UniProt P00735)
- Construct: bovine thrombin and argatroban were purchased from Sigma-Aldrich; purchased Sigma-Aldrich (St. Louis, MO, USA)
- TEST PROTOCOL: Thrombin inhibitory activity assay (chromogenic substrate S-2238)
- Assay type: biochemical
- TEST CONDITIONS: Table 1; anti-thrombin; substrate S-2238 4 mg/mL; read-out: IC50
Please use 1.0 for IC50 under 200 µM and 0.0 for everything else, ties included.

Field: below-cutoff. Rule: recorded IC50 strictly less than 200 µM. Subject: O=C(OC1Cc2c(O)cc(O)cc2OC1c1ccc(O)c(O)c1)c1cc(O)c(O)c(O)c1 (single isomer, unassigned; (-)) [(-)-Epicatechin gallate]
0.0

Record C[C@@H]1O[C@@H](O[C@H]2[C@H](Oc3cc(O)c4c(c3)O[C@H](c3ccc(O)cc3)CC4=O)O[C@H](CO)[C@@H](O)[C@@H]2O)[C@H](O)[C@H](O)[C@H]1O [Naringin] : is its IC50 strictly below 200 µM?
0.0

Hi there! Is IC50 for COc1c(O)cc2oc(-c3ccc(O)cc3)cc(=O)c2c1O [Hispidulin] below 200 µM, do you know?
1.0

Confirm or reject: IC50 of O=c1cc(-c2ccc(O)c(O)c2)oc2cc(O)cc(O)c12 [Luteolin] lies strictly below 200 µM
1.0

IC50 strictly < 200 µM for this compound? O=c1c(O)c(-c2ccc(O)cc2O)oc2cc(O)cc(O)c12 [Morin]
0.0

Take the compound COc1cc(-c2oc3cc(O)cc(O)c3c(=O)c2OC2OC(CO)C(O)C(O)C2OC2OC(C)C(O)C(O)C2O)ccc1O (stereo not shown) [Isorhamnetin-3-O-neohesperidoside] and say whether its IC50 is less than 200 µM.
0.0

Below 200 µM on IC50? Entry O=C(O)[C@H]1O[C@@H](Oc2cc3oc(-c4ccccc4)cc(=O)c3c(O)c2O)[C@H](O)[C@@H](O)[C@@H]1O [Baicalin]
1.0

* * *

For each entry below, report its pIC50 value.
- TESTED ON: bovine thrombin (Bos taurus, UniProt P00735)
- Construct: bovine thrombin and argatroban were purchased from Sigma-Aldrich; purchased Sigma-Aldrich (St. Louis, MO, USA)
- TEST PROTOCOL: Thrombin inhibitory activity assay (chromogenic substrate S-2238)
- Assay type: biochemical
- TEST CONDITIONS: Table 2; anti-thrombin; read-out: IC50 ±SD
Answers are plain numbers, as −log10 of the molar value.

O=C(O)[C@H]1O[C@@H](Oc2cc3oc(-c4ccccc4)cc(=O)c3c(O)c2O)[C@H](O)[C@@H](O)[C@@H]1O
4.05
O=c1c(O)c(-c2ccccc2)oc2cc(O)cc(O)c12
3.80
O=c1c(O)c(-c2ccc(O)cc2)oc2c(O)c(O)cc(O)c12
3.88
O=c1c(O)c(-c2ccc(O)cc2)oc2cc(O)cc(O)c12
3.97

For each entry beneath this line, provide reported pIC50.
1. COc1c(O)cc2oc(-c3ccc(O)cc3)cc(=O)c2c1O
2. O=c1cc(-c2ccc(O)cc2)oc2cc(O)c(O)c(O)c12
3. O=c1cc(-c2ccc(O)c(O)c2)oc2cc(O[C@@H]3O[C@H](CO)[C@@H](O)[C@H](O)[C@H]3O)cc(O)c12 [Luteoloside]
4. COc1cc(O)c2c(=O)cc(-c3ccc(O)c(O)c3)oc2c1 [Hydroxygenkwanin]

3.90
4.15
3.81
4.00

* * *

- TESTED ON: bovine thrombin (Bos taurus, UniProt P00735)
- Construct: bovine thrombin and argatroban were purchased from Sigma-Aldrich; purchased Sigma-Aldrich (St. Louis, MO, USA)
- TEST PROTOCOL: Thrombin inhibitory activity assay (chromogenic substrate S-2238)
- Assay type: biochemical
- TEST CONDITIONS: Table 2; class by anti-thrombin IC50
EXPERIMENTAL READOUT: Group (inhibitor class)

O=c1c(O)c(-c2ccc(O)c(O)c2)oc2cc(O)ccc12 [Fisetin]
Moderate inhibitor
O=c1c(O)c(-c2ccc(O)cc2)oc2c(O)c(O)cc(O)c12 [Herbacetin]
Moderate inhibitor
O=c1c(O)c(-c2ccccc2)oc2cc(O)cc(O)c12 [Galangin]
Moderate inhibitor

* * *

Hi there, I'd appreciate the recorded IC50 for every entry that follows.
- TESTED ON: bovine thrombin (Bos taurus, UniProt P00735)
- Construct: bovine thrombin and argatroban were purchased from Sigma-Aldrich; purchased Sigma-Aldrich (St. Louis, MO, USA)
- TEST PROTOCOL: Thrombin inhibitory activity assay (chromogenic substrate S-2238)
- Type: biochemical
- TEST CONDITIONS: Table 1; anti-thrombin; substrate S-2238 4 mg/mL; read-out: IC50
One number for each entry, in µM.

Before answering, review these 6 worked examples.
C[C@@H]1O[C@@H](OC[C@H]2O[C@@H](Oc3c(-c4ccc(O)c(O)c4)oc4cc(O)cc(O)c4c3=O)[C@H](O)[C@@H](O)[C@@H]2O)[C@H](O)[C@H](O)[C@H]1O
274
O=c1c(O)c(-c2ccc(O)cc2)oc2c(O)c(O)cc(O)c12
133
O=c1cc(-c2ccc(O)cc2)oc2cc(O)c(O)c(O)c12
70.8
O=c1c(O)c(-c2ccc(O)cc2)oc2cc(O)cc(O)c12
107
O=c1c(O)c(-c2ccc(O)c(O)c2)oc2cc(O)ccc12
175
O=c1c(O)c(-c2ccccc2)oc2cc(O)cc(O)c12
159

Batch: IC50 for all items listed.
1. COc1cc(O)c2c(=O)cc(-c3ccc(O)cc3)oc2c1
2. O=c1c(OC2OC(CO)C(O)C(O)C2O)c(-c2ccc(O)cc2)oc2cc(O)cc(O)c12 (stereo not drawn)

[212, 217]

* * *

- TESTED ON: bovine thrombin (Bos taurus, UniProt P00735)
- Construct: bovine thrombin and argatroban were purchased from Sigma-Aldrich; purchased Sigma-Aldrich (St. Louis, MO, USA)
- TEST PROTOCOL: Thrombin inhibitory activity assay (chromogenic substrate S-2238)
- Assay type: biochemical
- TEST CONDITIONS: IC50
pIC50: −log10 of the molar value.
EXPERIMENTAL READOUT: pIC50

Give the reported pIC50 for this compound. Oc1cc(O)c2c(c1)OC(c1cc(O)c(O)c(O)c1)C(O)C2 (single isomer, unassigned; (-)) [(-)-epigallocatechin]
< 3.30

* * *

- TESTED ON: bovine thrombin (Bos taurus)
- Construct: bovine thrombin and argatroban were purchased from Sigma-Aldrich; purchased Sigma-Aldrich (St. Louis, MO, USA)
- TEST PROTOCOL: Thrombin inhibitory activity assay (chromogenic substrate S-2238);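 note: microplate absorbance read-out, thrombin preincubated with test compound 5 min at 37 °C in PBS pH 7.2-7.4, inhibition relative to blank without compound after subtracting compound-only background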
- Format: biochemical
- TEST CONDITIONS: Table 2; class by anti-thrombin IC50
EXPERIMENTAL READOUT: Group (inhibitor class)

Examples from the recorded data:
O=c1cc(-c2ccc(O)cc2)oc2cc(O)c(O)c(O)c12
Strong inhibitor
O=C(O)[C@H]1O[C@@H](Oc2cc3oc(-c4ccccc4)cc(=O)c3c(O)c2O)[C@H](O)[C@@H](O)[C@@H]1O
Strong inhibitor
COc1c(O)cc2oc(-c3ccc(O)cc3)cc(=O)c2c1O
Moderate inhibitor
O=c1cc(-c2ccc(O)cc2)oc2cc(O)cc(O)c12
Strong inhibitor

// each listed molecule needs a value for Group (inhibitor class)
1. O=c1c(O)c(-c2ccc(O)cc2)oc2cc(O)cc(O)c12
2. COc1ccc(-c2cc(=O)c3c(O)cc(O)cc3o2)cc1O
3. O=c1cc(-c2ccc(O)c(O)c2)oc2cc(O)cc(O)c12
4. COc1cc(-c2oc3cc(O)cc(O)c3c(=O)c2O)ccc1O
5. O=c1cc(-c2ccc(O)c(O)c2)oc2cc(O[C@@H]3O[C@H](CO)[C@@H](O)[C@H](O)[C@H]3O)cc(O)c12 [Luteoloside]

1: Moderate inhibitor; 2: Moderate inhibitor; 3: Moderate inhibitor; 4: Strong inhibitor; 5: Moderate inhibitor
